# assayTarget: G9aK185me3 peptide (fluorescence polarization)
# procedureText: fluorescence polarisation
measurementType: Kd (µM)
// note: answer is a bare numeric in µM

Quick one: Kd of hCDYL1b chromodomain (1–78 aa) (domain or fragment) MASEELYEVERIVDKRKNKKGKTEYLVRWKGYDSEDDTWEPEQHLVNCEEYIHDFNRRHTEKQKESTLTRTNRTSPNN ?
8
